Data provenance is paper PMC6210068.

measurement_target: hDAT (Homo sapiens, UniProt Q01959)
Sequence (Q01959 whole entry): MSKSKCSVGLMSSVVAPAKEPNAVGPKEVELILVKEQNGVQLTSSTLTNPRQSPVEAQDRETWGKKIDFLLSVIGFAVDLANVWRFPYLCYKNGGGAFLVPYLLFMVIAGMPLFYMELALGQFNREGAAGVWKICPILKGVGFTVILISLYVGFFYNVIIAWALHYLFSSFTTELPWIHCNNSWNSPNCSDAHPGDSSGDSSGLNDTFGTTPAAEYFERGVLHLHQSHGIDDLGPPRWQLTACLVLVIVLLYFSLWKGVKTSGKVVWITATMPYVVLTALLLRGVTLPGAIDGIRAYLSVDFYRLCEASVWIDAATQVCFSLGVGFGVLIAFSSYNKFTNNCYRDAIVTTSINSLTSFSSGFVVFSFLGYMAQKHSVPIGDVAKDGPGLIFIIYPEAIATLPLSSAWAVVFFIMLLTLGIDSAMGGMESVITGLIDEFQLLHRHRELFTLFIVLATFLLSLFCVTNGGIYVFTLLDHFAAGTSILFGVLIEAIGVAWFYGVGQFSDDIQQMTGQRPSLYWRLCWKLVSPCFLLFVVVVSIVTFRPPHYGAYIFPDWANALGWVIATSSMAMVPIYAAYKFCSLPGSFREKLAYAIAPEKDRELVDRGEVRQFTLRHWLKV
measurement_protocol: Radioligand binding at DAT
measurement_conditions: 10 μM; [3H]WIN35428; negative = enhanced radioligand binding
measured_endpoint: DAT, inhibition, % of control at 10 μM

Reference set (4 entries):
compound="CNc1nc(C#Cc2ccc(Cl)s2)nc2c1ncn2[C@@H]1O[C@H](C(=O)OC)[C@@H](O)[C@H]1O [compound 46]" measurement_target="hDAT (Homo sapiens, UniProt Q01959)" measured_result=–220%
compound="CNC(=O)[C@@]12C[C@@H]1[C@@H](n1cnc3c(NCc4cccc(Cl)c4)nc(Cl)nc31)[C@H](O)[C@@H]2O [compound 5]" measurement_target="hDAT (Homo sapiens, UniProt Q01959)" measured_result=3%
compound="CNc1nc(C#Cc2ccc(Cl)s2)nc2c1ncn2[C@H]1[C@H](O)[C@H](O)[C@]2(C(=O)O)C[C@H]12 [compound 38]" measurement_target="hDAT (Homo sapiens, UniProt Q01959)" measured_result=–50%
compound="CNC(=O)[C@@]12C[C@@H]1[C@@H](n1cnc3c(NCc4cccc(Cl)c4)nc(C#Cc4ccc(F)c(F)c4)nc31)[C@H](O)[C@@H]2O [compound 4]" measurement_target="hDAT (Homo sapiens, UniProt Q01959)" measured_result=16%

Incoming: Find the recorded DAT, inhibition, % of control at 10 μM belonging to CCOC(=O)[C@@]12C[C@@H]1[C@@H](n1ccc3c(NCC4CC4)nc(C#Cc4ccccc4)nc31)[C@H](O)[C@@H]2O [compound 42] and report it.
Outgoing: –13%

Incoming: Check CCCCOC(=O)[C@@]12C[C@@H]1[C@@H](n1cnc3c(NC)nc(C#Cc4ccc(Cl)s4)nc31)[C@H](O)[C@@H]2O [compound 32] too.
Outgoing: –285%

---

measurement_target: hA2AAR (Homo sapiens, UniProt P29274)
Sequence (P29274 whole entry): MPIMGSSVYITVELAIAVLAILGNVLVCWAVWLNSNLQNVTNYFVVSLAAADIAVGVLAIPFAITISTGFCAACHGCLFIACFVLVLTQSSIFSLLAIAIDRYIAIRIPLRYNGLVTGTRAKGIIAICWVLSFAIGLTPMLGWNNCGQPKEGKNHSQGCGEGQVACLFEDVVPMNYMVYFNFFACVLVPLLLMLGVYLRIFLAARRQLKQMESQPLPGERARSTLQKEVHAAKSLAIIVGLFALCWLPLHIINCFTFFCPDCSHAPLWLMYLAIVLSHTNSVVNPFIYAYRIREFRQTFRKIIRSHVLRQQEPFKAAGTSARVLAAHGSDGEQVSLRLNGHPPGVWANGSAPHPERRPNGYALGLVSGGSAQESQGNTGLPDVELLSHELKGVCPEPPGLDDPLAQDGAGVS
measurement_protocol: hA2AAR binding
measurement_conditions: read-out: binding inhibition at hA2AAR (% at 10 μM)
measured_endpoint: inhibition at 10 µM (%)

cpd_smiles=CCOC(=O)[C@@]12C[C@@H]1[C@@H](n1ccc3c(NC4CC4)nc(C#Cc4ccccc4)nc31)[C@H](O)[C@@H]2O measured_result=25
cpd_smiles=CNC(=O)[C@@]12C[C@@H]1[C@@H](n1cnc3c(NCCC(F)(F)F)nc(C#Cc4ccc(Cl)s4)nc31)[C@H](O)[C@@H]2O measured_result=21

---

measurement_target: CYP2C19 (Homo sapiens)
Sequence (P33261 whole entry): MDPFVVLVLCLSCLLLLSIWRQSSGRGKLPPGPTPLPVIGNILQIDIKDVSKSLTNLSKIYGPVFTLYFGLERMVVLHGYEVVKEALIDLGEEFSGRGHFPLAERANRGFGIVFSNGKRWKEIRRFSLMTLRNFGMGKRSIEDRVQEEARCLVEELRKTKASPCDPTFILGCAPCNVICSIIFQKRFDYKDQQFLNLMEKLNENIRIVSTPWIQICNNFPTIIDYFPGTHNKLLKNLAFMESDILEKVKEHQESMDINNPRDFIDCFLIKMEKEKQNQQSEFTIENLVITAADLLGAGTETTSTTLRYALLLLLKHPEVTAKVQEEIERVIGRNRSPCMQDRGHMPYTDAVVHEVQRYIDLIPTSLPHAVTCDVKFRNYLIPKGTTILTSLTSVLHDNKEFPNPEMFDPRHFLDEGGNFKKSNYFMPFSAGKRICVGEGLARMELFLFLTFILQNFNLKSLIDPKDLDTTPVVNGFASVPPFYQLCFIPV
pIC50: −log10 of the molar value.
measured_endpoint: pIC50

Incoming: For CCOC(=O)[C@@]12C[C@@H]1[C@@H](n1ccc3c(NC)nc(C#Cc4ccc(Cl)s4)nc31)[C@H](O)[C@@H]2O [compound 28] , what is its reported pIC50?
Outgoing: ≤ 5.00

---

measurement_target: muscarinic M5 receptor (Homo sapiens, UniProt P08912)
Sequence (P08912 1-532): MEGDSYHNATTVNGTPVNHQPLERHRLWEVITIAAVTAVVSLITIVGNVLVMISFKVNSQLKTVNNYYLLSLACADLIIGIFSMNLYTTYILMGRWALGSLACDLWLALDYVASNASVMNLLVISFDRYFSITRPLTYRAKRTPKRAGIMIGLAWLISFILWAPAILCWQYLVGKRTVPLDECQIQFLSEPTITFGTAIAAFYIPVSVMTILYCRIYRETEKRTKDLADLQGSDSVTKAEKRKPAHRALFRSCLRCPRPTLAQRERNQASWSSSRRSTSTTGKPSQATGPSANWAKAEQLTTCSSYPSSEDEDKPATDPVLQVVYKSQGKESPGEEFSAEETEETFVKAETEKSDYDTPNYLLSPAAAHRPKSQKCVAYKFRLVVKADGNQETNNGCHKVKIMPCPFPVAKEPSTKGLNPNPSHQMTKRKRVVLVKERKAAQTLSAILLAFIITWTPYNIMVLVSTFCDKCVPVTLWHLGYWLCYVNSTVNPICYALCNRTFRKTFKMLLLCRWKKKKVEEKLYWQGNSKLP
measurement_protocol: PDSP off-target binding, muscarinic M5
measured_endpoint: pKi
Reminder that pKi means the negative base-10 logarithm of the concentration expressed in mol/L.

Incoming: Look at this molecule and give its reported pKi. CCOC(=O)[C@@]12C[C@@H]1[C@@H](n1cnc3c(NC)nc(C#Cc4ccc(Cl)s4)cc31)[C@H](O)[C@@H]2O
Outgoing: 5.41
